- Tested on: PANC-1
- METHOD: Cytotoxicity against human PANC1 cells after 48 hrs by SRB assay
- Format: functional
- TEST_CONTEXT: PANC-1, 48 h, read-out: LC50 (the source's name)
READOUT_NAME: CC50

Task: Give the value of CC50 reported for the following: C/C=C1\NC(=O)[C@H](Cc2ccccc2)NC(=O)[C@@H](C(C)C)NC(=O)[C@@H]([C@H](C)CC)NC(=O)[C@H](NC(=O)[C@H](NC(=O)[C@H](CCCN)NC(=O)[C@H]2CCCN2C(=O)[C@H](NC(=O)[C@@H](NC(=O)[C@H](NC(=O)[C@H](NC(=O)CCCC(C)C)C(C)C)[C@@H](C)O)C(C)C)C(C)C)[C@H](C)CC)[C@H](C)OC(=O)[C@H](C(C)C)NC1=O
Result: 1770 nM

Task: Tell me measured CC50 for C/C=C1\NC(=O)[C@H](Cc2ccccc2)NC(=O)[C@@H](C(C)C)NC(=O)[C@@H]([C@H](C)CC)NC(=O)[C@H](NC(=O)[C@H](NC(=O)[C@H](CCCN)NC(=O)[C@H]2CCCN2C(=O)[C@H](NC(=O)[C@@H](NC(=O)[C@@H](NC(=O)[C@H](NC(=O)c2ccccc2)C(C)C)[C@@H](C)O)C(C)C)C(C)C)[C@H](C)CC)[C@H](C)OC(=O)[C@H](C(C)C)NC1=O please.
Result: 2540 nM

Task: Tell us which CC50 value is on record for C/C=C1\NC(=O)[C@H](Cc2ccccc2)NC(=O)[C@@H](C(C)C)NC(=O)[C@@H]([C@H](C)CC)NC(=O)[C@H](NC(=O)[C@H](NC(=O)[C@H](CCCN)NC(=O)[C@H]2CCCN2C(=O)[C@H](NC(=O)[C@@H](NC(=O)[C@@H](NC(=O)[C@H](NC(=O)CCCCCCCCCC)C(C)C)[C@@H](C)O)C(C)C)C(C)C)[C@H](C)CC)[C@H](C)OC(=O)[C@H](C(C)C)NC1=O
Result: 1440 nM

###

- System: A549
- METHOD: Cytotoxicity against human A549 cells after 48 hrs by SRB assay
- Assay type: functional, cell-based
- TEST_CONTEXT: Homo sapiens, A549, 48 h; read-out: GI50
READOUT_NAME: GI50
Express the reported value numerically, then name its unit.

SMILES_NOTATION	GI50
C/C=C1\NC(=O)[C@H](Cc2ccccc2)NC(=O)[C@@H](C(C)C)NC(=O)[C@@H]([C@H](C)CC)NC(=O)[C@H](NC(=O)[C@H](NC(=O)[C@H](CCCNC(=O)CCOCCOCCN)NC(=O)[C@H]2CCCN2C(=O)[C@H](NC(=O)[C@@H](NC(=O)[C@@H](NC(=O)[C@H](NC(=O)CCCC(C)C)C(C)C)[C@@H](C)O)C(C)C)C(C)C)[C@H](C)CC)[C@H](C)OC(=O)[C@H](C(C)C)NC1=O	4920 nM
C/C=C1\NC(=O)[C@H](Cc2ccc([N+](=O)[O-])cc2)NC(=O)[C@@H](C(C)C)NC(=O)[C@@H]([C@H](C)CC)NC(=O)[C@H](NC(=O)[C@H](NC(=O)[C@H](CCCN)NC(=O)[C@H]2CCCN2C(=O)[C@H](NC(=O)[C@@H](NC(=O)[C@@H](NC(=O)[C@H](NC(=O)CC[C@@H](C)CC)C(C)C)[C@@H](C)O)C(C)C)C(C)C)[C@H](C)CC)[C@H](C)OC(=O)[C@H](C(C)C)NC1=O	562 nM
C/C=C1\NC(=O)[C@H](Cc2ccccc2)NC(=O)[C@@H](C(C)C)NC(=O)[C@@H]([C@H](C)CC)NC(=O)[C@H](NC(=O)[C@H](NC(=O)[C@H](CCCC[N+](C)(C)C)NC(=O)[C@H]2CCCN2C(=O)[C@H](NC(=O)[C@@H](NC(=O)[C@@H](NC(=O)[C@H](NC(=O)CC[C@@H](C)CC)C(C)C)[C@@H](C)O)C(C)C)C(C)C)[C@H](C)CC)[C@H](C)OC(=O)[C@H](C(C)C)NC1=O	1390 nM

Switching to the query record.
Task: System A549. Read-out GI50. Item C/C=C1\NC(=O)[C@H](Cc2ccccc2)NC(=O)[C@@H](C(C)C)NC(=O)[C@@H]([C@H](C)CC)NC(=O)[C@H](NC(=O)[C@H](NC(=O)[C@H](CCCCN)NC(=O)[C@H]2CCCN2C(=O)[C@H](NC(=O)[C@@H](NC(=O)[C@@H](NC(=O)[C@H](NC(=O)CCCC(C)C)C(C)C)[C@@H](C)O)C(C)C)C(C)C)[C@H](C)CC)[C@H](C)OC(=O)[C@H](C(C)C)NC1=O . Report value.
Result: 1440 nM

###

- METHOD: Cytotoxicity against human IGROV-ET cells after 48 hrs by SRB assay
- Type: functional
- TEST_CONTEXT: read-out: LC50 (the source's name)
Catalogue of CC50 readings, one per entry.
Please respond with the number in nM and leave the unit unwritten.

SMILES_NOTATION	CC50 [nM]
C/C=C1\NC(=O)[C@H](Cc2ccccc2)NC(=O)[C@@H](C(C)C)NC(=O)[C@@H]([C@H](C)CC)NC(=O)[C@H](NC(=O)[C@H](NC(=O)[C@H](CCCN)NC(=O)[C@H]2CCCN2C(=O)[C@H](NC(=O)[C@@H](NC(=O)[C@@H](NC(=O)[C@H](NC(=O)Cc2cc(F)cc(F)c2)C(C)C)[C@@H](C)O)C(C)C)C(C)C)[C@H](C)CC)[C@H](C)OC(=O)[C@H](C(C)C)NC1=O	520
C/C=C1\NC(=O)[C@H](CCC2CCCCC2)NC(=O)[C@@H](C(C)C)NC(=O)[C@@H]([C@@H](C)CC)NC(=O)[C@H](NC(=O)[C@H](NC(=O)[C@H](CCCN)NC(=O)[C@H]2CCCN2C(=O)[C@H](NC(=O)[C@@H](NC(=O)[C@@H](NC(=O)[C@H](NC(=O)CCCC(C)C)C(C)C)[C@@H](C)O)C(C)C)C(C)C)[C@@H](C)CC)[C@@H](C)OC(=O)[C@H](C(C)C)NC1=O	350

// moving on: another record for CC50
Task: Give reported CC50 value for C/C=C1\NC(=O)[C@H](Cc2ccccc2Cl)NC(=O)[C@@H](C(C)C)NC(=O)[C@@H]([C@H](C)CC)NC(=O)[C@H](NC(=O)[C@H](NC(=O)[C@H](CCCN)NC(=O)[C@H]2CCCN2C(=O)[C@H](NC(=O)[C@@H](NC(=O)[C@@H](NC(=O)[C@H](NC(=O)CCCC(C)C)C(C)C)[C@@H](C)O)C(C)C)C(C)C)[C@H](C)CC)[C@H](C)OC(=O)[C@H](C(C)C)NC1=O
Result: 196

###

- METHOD: Cytotoxicity against human IGROV cells after 48 hrs by SRB assay
- Format: functional
READOUT_NAME: TGI (µM)
Reply with just the number (in µM).

SMILES_NOTATION	TGI, µM
C/C=C1\NC(=O)[C@H](Cc2ccccc2)NC(=O)[C@@H](C(C)C)NC(=O)[C@@H]([C@H](C)CC)NC(=O)[C@H](NC(=O)[C@H](NC(=O)[C@H](CCCN)NC(=O)[C@H]2CCCN2C(=O)[C@H](NC(=O)[C@@H](NC(=O)[C@@H](NC(=O)[C@H](NC(=O)CCCC(C)C)C(C)C)[C@@H](C)O)C(C)C)C(C)C)[C@H](C)CC)COC(=O)[C@H](C(C)C)NC1=O	25.1
C/C=C1\NC(=O)[C@H](Cc2ccccc2)NC(=O)[C@@H](C(C)C)NC(=O)[C@@H]([C@H](C)CC)NC(=O)[C@H](NC(=O)[C@H](NC(=O)[C@H](CCCN)NC(=O)[C@H]2CCCN2C(=O)[C@H](NC(=O)[C@H](CC(C)C)NC(=O)[C@@H](NC(=O)[C@H](NC(=O)CCCC(C)C)C(C)C)[C@@H](C)O)C(C)C)[C@H](C)CC)[C@H](C)OC(=O)[C@H](C(C)C)NC1=O	4.02

Task: Give the reported TGI for this compound. C/C=C1\NC(=O)[C@@H](Cc2ccccc2)NC(=O)[C@H](C(C)C)NC(=O)[C@H]([C@H](C)CC)NC(=O)[C@@H](NC(=O)[C@@H](NC(=O)[C@@H](CCCN)NC(=O)[C@@H]2CCCN2C(=O)[C@@H](NC(=O)[C@H](NC(=O)[C@H](NC(=O)[C@@H](NC(=O)CCCC(C)C)C(C)C)[C@@H](C)O)C(C)C)C(C)C)[C@H](C)CC)[C@H](C)OC(=O)[C@H](C(C)C)NC1=O
Result: 134

###

- System: LoVo
- METHOD: Cytotoxicity against human doxorubicin resistant LoVo cells after 48 hrs by SRB assay
- Format: functional
READOUT_NAME: TGI (nM)
Field format: number, assumed nM, no unit text.

SMILES_NOTATION	TGI (nM)
C/C=C1\NC(=O)[C@H](Cc2ccc(-c3ccccc3)cc2)NC(=O)[C@@H](C(C)C)NC(=O)[C@@H]([C@H](C)CC)NC(=O)[C@H](NC(=O)[C@H](NC(=O)[C@H](CCCN)NC(=O)[C@H]2CCCN2C(=O)[C@H](NC(=O)[C@@H](NC(=O)[C@@H](NC(=O)[C@H](NC(=O)CCCC(C)C)C(C)C)[C@@H](C)O)C(C)C)C(C)C)[C@H](C)CC)[C@H](C)OC(=O)[C@H](C(C)C)NC1=O	239

Task: State TGI on LoVo. Entry: C/C=C1\NC(=O)[C@H](Cc2ccccc2)N(C)C(=O)[C@@H](C(C)C)NC(=O)[C@@H]([C@H](C)CC)NC(=O)[C@H](NC(=O)[C@H](NC(=O)[C@H](CCCN)NC(=O)[C@H]2CCCN2C(=O)[C@H](NC(=O)[C@@H](NC(=O)[C@@H](NC(=O)[C@H](NC(=O)CC[C@@H](C)CC)C(C)C)[C@@H](C)O)C(C)C)C(C)C)[C@H](C)CC)[C@H](C)OC(=O)[C@H](C(C)C)NC1=O
Result: 311

Task: Report TGI on LoVo for this entry: C/C=C1\NC(=O)[C@H](CCC2CCCCC2)NC(=O)[C@@H](C(C)C)NC(=O)[C@@H]([C@@H](C)CC)NC(=O)[C@H](NC(=O)[C@H](NC(=O)[C@H](CCCN)NC(=O)[C@H]2CCCN2C(=O)[C@H](NC(=O)[C@@H](NC(=O)[C@@H](NC(=O)[C@H](NC(=O)CCCC(C)C)C(C)C)[C@@H](C)O)C(C)C)C(C)C)[C@@H](C)CC)[C@@H](C)OC(=O)[C@H](C(C)C)NC1=O
Result: 258

Task: Fill: TGI (LoVo) for this compound C/C=C1\NC(=O)[C@H](Cc2ccccc2Cl)NC(=O)[C@@H](C(C)C)NC(=O)[C@@H]([C@H](C)CC)NC(=O)[C@H](NC(=O)[C@H](NC(=O)[C@H](CCCN)NC(=O)[C@H]2CCCN2C(=O)[C@H](NC(=O)[C@@H](NC(=O)[C@@H](NC(=O)[C@H](NC(=O)CCCC(C)C)C(C)C)[C@@H](C)O)C(C)C)C(C)C)[C@H](C)CC)[C@H](C)OC(=O)[C@H](C(C)C)NC1=O
Result: 46.9

Task: Report TGI under test system LoVo for C/C=C1\NC(=O)[C@H](Cc2ccccc2)NC(=O)[C@@H](C(C)C)NC(=O)[C@@H]([C@H](C)CC)NC(=O)[C@H](NC(=O)[C@H](NC(=O)[C@H](CCCN)NC(=O)[C@H]2CCCN2C(=O)[C@H](NC(=O)[C@@H](NC(=O)[C@H](Cc2ccccc2)NC(=O)[C@H](NC(=O)CCCC(C)C)C(C)C)C(C)C)C(C)C)[C@H](C)CC)[C@H](C)OC(=O)[C@H](C(C)C)NC1=O .
Result: 456
